biological target: T1, human IL-13 wild type (human, UniProt P35225 35-146); assay: SPR (Biacore), mAb captured, IL-13 as analyte
T1 construct: also called h IL-13; h IL-13 wt
T1 sequence (P35225 other isoform, or with tags, fused parts or gaps limits assumed): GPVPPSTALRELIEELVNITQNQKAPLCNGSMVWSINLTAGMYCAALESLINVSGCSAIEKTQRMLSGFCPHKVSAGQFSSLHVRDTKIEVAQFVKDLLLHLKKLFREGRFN
Measured koff, listed per entry for reference.
Write the value in s⁻¹ as a bare number.

Look at this binder and give its reported koff. 5D3 (antibody, V domains shown) VH: QVQLKESGPGLVAPSQSLSITCTVSGFSLTGYNINWVRQPPGKGLEWLGLIWGDGNTAFNSALKSRLSISKDNSKSQVFLKLNSLQTDDTARYYCARDGYYPYAIKYWGQGTSVTVSS VL: NIVLTQSPASLAVSLGQRATISCRASETVDSYGNSFMHWYQQKPGQPPKLLIYLASNLESGVPARFSGSGSRTDFTLTIDPVEADDAATYYCQQNNEDPRTFGGGTKLEIKR
0.000483

Look at this binder and give its reported koff. 9C11 (antibody, V domains shown) VH: QVRLQQPGAELVRPGASVKLSCKASGYTFTSSWIHWVNQRPGQGLEWIGMIHPSDSETRLNQKFKDKATLTVDKSSSTAYMQLSSPTSEDSAVYYCASTATDFDYWGQGTTLTVSS VL: DVVLTQTPLSLPVNIGDQASISCRSTQTLLNSDGFTYLDWYLQKPGQSPQLLIYLVSNRFSGVPDRFSGSGSGTDFTLKISRVEAEDLGVYYCFQNNYLPLTFGAGTKLELKR
6.5e-05

Look at this binder and give its reported koff. 22D10 (antibody, V domains shown) VH: QVQLQQSGDDLVKPGASVKLSCKASGYTFTSYWINWIKQRPGQGLEWIGHIAPGSGETYDNEMFKDKAKLTVDTSSSTAYIHLSSLSSEDSAVYFCARGSFTFFYAMDYWGQGTSVTVSS VL: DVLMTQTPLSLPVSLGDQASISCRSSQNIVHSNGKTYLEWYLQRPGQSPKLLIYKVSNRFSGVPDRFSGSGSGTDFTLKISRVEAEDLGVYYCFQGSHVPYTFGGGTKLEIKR
6.5e-05

Data origin, for the record: patent US20110165066A1
